Target: NFAT5 (Mus musculus, UniProt Q9WV30)
Construct: endogenous in cells; host or cells: RAW264.7
Sequence (Q9WV30 whole entry): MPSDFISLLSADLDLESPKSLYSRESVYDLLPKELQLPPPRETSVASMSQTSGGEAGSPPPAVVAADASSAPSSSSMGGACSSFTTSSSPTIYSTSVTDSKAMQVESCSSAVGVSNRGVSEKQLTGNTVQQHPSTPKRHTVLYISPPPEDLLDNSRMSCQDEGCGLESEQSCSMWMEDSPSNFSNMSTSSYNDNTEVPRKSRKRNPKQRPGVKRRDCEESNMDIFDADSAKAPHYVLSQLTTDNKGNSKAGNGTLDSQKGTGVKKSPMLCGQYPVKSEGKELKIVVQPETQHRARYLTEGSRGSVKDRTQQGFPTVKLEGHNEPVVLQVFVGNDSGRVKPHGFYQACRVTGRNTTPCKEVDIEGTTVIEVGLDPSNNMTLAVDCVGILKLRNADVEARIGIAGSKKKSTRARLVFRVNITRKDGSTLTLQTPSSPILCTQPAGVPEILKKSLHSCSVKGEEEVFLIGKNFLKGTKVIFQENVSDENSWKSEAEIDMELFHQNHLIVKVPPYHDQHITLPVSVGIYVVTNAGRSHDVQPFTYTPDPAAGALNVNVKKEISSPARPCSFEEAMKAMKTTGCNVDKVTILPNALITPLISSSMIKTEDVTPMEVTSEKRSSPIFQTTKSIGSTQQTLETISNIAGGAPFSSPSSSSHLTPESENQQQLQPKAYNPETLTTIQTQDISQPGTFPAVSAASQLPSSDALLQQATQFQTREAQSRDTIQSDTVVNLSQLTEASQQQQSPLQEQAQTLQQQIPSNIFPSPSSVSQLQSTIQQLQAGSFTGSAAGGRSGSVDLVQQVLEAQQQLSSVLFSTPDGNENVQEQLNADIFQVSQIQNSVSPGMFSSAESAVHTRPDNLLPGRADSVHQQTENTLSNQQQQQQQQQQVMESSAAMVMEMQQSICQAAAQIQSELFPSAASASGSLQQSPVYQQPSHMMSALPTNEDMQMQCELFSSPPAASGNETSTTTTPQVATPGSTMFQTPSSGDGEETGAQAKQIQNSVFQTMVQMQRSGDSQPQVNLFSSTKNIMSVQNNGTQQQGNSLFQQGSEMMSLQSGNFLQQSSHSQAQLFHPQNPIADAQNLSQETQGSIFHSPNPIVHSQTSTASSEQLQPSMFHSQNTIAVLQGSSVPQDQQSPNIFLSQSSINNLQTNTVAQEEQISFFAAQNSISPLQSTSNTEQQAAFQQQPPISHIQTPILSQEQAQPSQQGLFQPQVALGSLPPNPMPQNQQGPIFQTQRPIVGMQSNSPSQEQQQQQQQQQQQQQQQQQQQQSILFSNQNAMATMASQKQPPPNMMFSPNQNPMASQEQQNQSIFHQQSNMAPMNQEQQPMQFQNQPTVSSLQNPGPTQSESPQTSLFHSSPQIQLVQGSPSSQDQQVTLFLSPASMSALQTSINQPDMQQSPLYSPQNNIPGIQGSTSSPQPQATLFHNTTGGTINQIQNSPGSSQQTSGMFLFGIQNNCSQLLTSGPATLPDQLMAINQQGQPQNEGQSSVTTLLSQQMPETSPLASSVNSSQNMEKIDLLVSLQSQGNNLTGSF
Test: NFAT5 reporter screening (GFP, HCS) in LPS-treated Raw264.7 cells
Assay type: cell-based
Settings: 1 μM; Raw264.7 reporter, LPS 1 μg/ml, 48 hours
Could you mark each record Met if its Inhibition rate of NFAT5 transcription (%) falls strictly under 10%, and Not met if it equals or exceeds it?

Q. Decide: Inhibition rate of NFAT5 transcription (%) of COc1ccc2c(C(=O)c3ccccc3F)c3n(c(=O)c2c1OC)CCc1cc2c(cc1-3)OCO2 [Example 9] strictly below 10%?
A. Met

Q. Decide: Inhibition rate of NFAT5 transcription (%) of COc1ccc2c(C(=O)O)c3n(c(=O)c2c1OC)CCc1cc2c(cc1-3)OCO2 [Example 11] strictly below 10%?
A. Met

Q. Decide: Inhibition rate of NFAT5 transcription (%) of COc1ccccc1Cc1c2n(c(=O)c3c(OC)c(OC)ccc13)CCc1cc3c(cc1-2)OCO3 [Example 5] strictly below 10%?
A. Not met

Q. Decide: Inhibition rate of NFAT5 transcription (%) of COc1ccc2c(Cc3ccccc3C)c3n(c(=O)c2c1OC)CCc1cc2c(cc1-3)OCO2 [Example 4] strictly below 10%?
A. Met

Q. Decide: Inhibition rate of NFAT5 transcription (%) of COc1ccc2c(Cc3ccccc3F)c3n(c(=O)c2c1OC)CCc1cc2c(cc1-3)OCO2 [Example 1] strictly below 10%?
A. Not met

Q. Decide: Inhibition rate of NFAT5 transcription (%) of COc1ccc2c(Cc3ccc(F)cc3F)c3n(c(=O)c2c1OC)CCc1cc2c(cc1-3)OCO2 [Example 2] strictly below 10%?
A. Not met

Q. Decide: Inhibition rate of NFAT5 transcription (%) of CCOC(=O)c1c2n(c(=O)c3c(OC)c(OC)ccc13)CCc1cc3c(cc1-2)OCO3 [Example 10] strictly below 10%?
A. Met
